# Assayed System: Cytochrome P450 2D6 (Homo sapiens) (UniProt P10635)
# Sequence (P10635 whole entry, looked up): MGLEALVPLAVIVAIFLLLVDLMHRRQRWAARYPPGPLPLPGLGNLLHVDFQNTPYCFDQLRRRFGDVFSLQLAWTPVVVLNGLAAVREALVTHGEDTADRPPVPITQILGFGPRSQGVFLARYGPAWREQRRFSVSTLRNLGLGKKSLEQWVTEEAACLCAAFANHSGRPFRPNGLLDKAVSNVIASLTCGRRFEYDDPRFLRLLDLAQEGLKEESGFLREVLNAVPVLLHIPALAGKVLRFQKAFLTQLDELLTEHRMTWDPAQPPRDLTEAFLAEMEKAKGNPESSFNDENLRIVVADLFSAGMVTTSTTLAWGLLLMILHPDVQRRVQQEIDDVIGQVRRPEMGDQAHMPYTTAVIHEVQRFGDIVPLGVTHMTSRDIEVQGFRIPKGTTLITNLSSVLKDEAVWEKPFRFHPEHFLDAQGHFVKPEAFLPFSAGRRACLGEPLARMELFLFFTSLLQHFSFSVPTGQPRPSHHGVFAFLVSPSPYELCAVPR
# Test: Cytochrome P450 family 2 subfamily D member 6 (CYP2D6) small molecule antagonists: luciferase biochemical (cell-free) qHTS assay (AID 1645840); note: nearly all actives have a fitted effect of over 55% in size
# Condition Details: P450-Glo CYP2D6 enzyme, luciferin luminescence, 1 h; series mostly up to 57.4 µM
Inconclusive results are not listed. Active and inactive are the calls of the source. Calls come from the whole dose curve; as a rule, active = well fitted inhibition curve with a large enough effect in the repeat runs; inconclusive = weak or mixed curves; inactive = flat fitted curve, though single readings scatter.
# valid calls are YES (active), NO (inactive); nothing else

What did the test return for OC(CCN1CCCCC1)(c1ccccc1)C1CCCCC1 (configuration not stated) ?
YES

What did the test return for CCn1ccnc1CC1COc2ccccc2O1 (configuration not stated) ?
YES

What did the test return for CC(C(=O)O)c1ccc(CC2CCCC2=O)cc1 (configuration not stated) ?
NO

What did the test return for "OCCN1CCN(CC/C=C2/c3ccccc3Sc3ccc(C(F)(F)F)cc32)CC1" ?
YES

What did the test return for "CN(C)C(=O)Oc1cccc([N+](C)(C)C)c1" ?
NO

What did the test return for "C[C@]12CCC(=O)C=C1CC[C@@H]1[C@@H]2CC[C@@]2(C)[C@H]1CC[C@]2(O)C(=O)CO" ?
NO

What did the test return for "CCCOc1ccccc1-c1nc2n[nH]nc2c(=O)[nH]1" ?
NO
